// data source = the NIST ThermoML archive (doi:10.1016/j.tca.2016.03.026)

experimental.context: 318.15 K; 100 kPa; Liquid; Vibrating tube method
metric.name: mass density (kg/m3)
Give the value, in units of kg/m3, as a plain number.

// worked examples, mass density included
compound | mass density [kg/m3]
CC(C)CO [2-methyl-1-propanol] | 781.98
CCCCCCCC[n+]1ccn(C)c1.F[B-](F)(F)F [1-methyl-3-octylimidazolium tetrafluoroborate] | 1091.54
CCCCO [butan-1-ol] | 790.21

Next up:
**Query** Which mass density reading was recorded for the compound CC(C)(C)O [2-methylpropan-2-ol] ?
**Result** 759.5

* * *

experimental.context: 318.15 K; 100 kPa; Liquid; Frequency=3 MHz; Sing-around technique in a fixed-path interferometer
metric.name: speed of sound (m/s)
Numbers only; they are read as m/s.

Reference set, count: 3
compound | metric.name | endpoint.result
CC(C)CO [2-methyl-1-propanol] | speed of sound | 1118.6
CCCCCCCC[n+]1ccn(C)c1.F[B-](F)(F)F [1-methyl-3-octylimidazolium tetrafluoroborate] | speed of sound | 1433.2
CCCCO [butan-1-ol] | speed of sound | 1171.5

Here is another compound to look at.
**Query** Endpoint output: speed of sound of CC(C)(C)O [2-methylpropan-2-ol] . Value?
**Result** 1038.2
